assay.overview: Plasma pharmacokinetics and brain distribution after single IV, IP and oral administration
Type: in vivo
condition: male, C57BL/6, mouse, in vivo, po, 10 mg/kg, Plasma concentration, individual animal
Counter-ions that a name gives are not always drawn.
result.type: concentration at 0.35 h

(Q) Name the reported concentration at 0.35 h value associated with the molecule [2H]C([2H])([2H])Oc1ccc(Nc2nc(-c3c(C)nc4ccccn34)cs2)cc1 [Compound 15, hydrochloride]
(A) 251 ng/mL

====

Documented Kp across a set of compounds
assay.overview: Plasma pharmacokinetics and brain distribution after single IV, IP and oral administration
Format: in vivo
condition: male, C57BL/6, mouse, brain, po, 10 mg/kg, summary data; read-out: Brain to plasma ratio following a single oral dose
Counter-ions that a name gives are not always drawn.

Recorded results for 2 compounds are shown here.
(Q) # get_value(readout='Kp', item= Cc1nc2ccccn2c1-c1csc(Nc2ccc3c(c2)OC(F)(F)O3)n1 [Compound 16, hydrochloride] )
(A) 1.81

(Q) # repeat for [2H]C([2H])([2H])Oc1ccc(Nc2nc(-c3c(C)nc4ccccn34)cs2)cc1 [Compound 15, hydrochloride]
(A) 1.03

***
(Q) Could you tell me which Kp is on file for [2H]C1([2H])Oc2ccc(Nc3nc(-c4c(C)nc5ccccn45)cs3)cc2O1 [Compound 17, hydrochloride] ?
(A) 0.48

====

assay.overview: Plasma pharmacokinetics and brain distribution after single IV, IP and oral administration
Type: in vivo
condition: male, C57BL/6, mouse, in vivo, iv, 10 mg/kg, Mean brain conc.
Where a name gives a salt, the structure may show the parent alone.
result.type: concentration at 1 h (ng/g)
Please respond with the number in ng/g and leave the unit unwritten.

(Q) Given Cc1nc2ccccn2c1-c1csc(Nc2ccc3c(c2)OC(F)(F)O3)n1 [Compound 16, hydrochloride] , state its recorded concentration at 1 h.
(A) 225

====

assay.overview: Plasma pharmacokinetics and brain distribution after single IV, IP and oral administration
Type: in vivo
condition: male, C57BL/6, mouse, in vivo, ip, 10 mg/kg, Mean plasma conc.
Counter-ions that a name gives are not always drawn.
result.type: concentration at 0.35 h (ng/mL)
Give the value, in units of ng/mL, as a plain number.

(Q) What value of measured concentration at 0.35 h is listed for Cc1nc2ccccn2c1-c1csc(Nc2ccc3c(c2)OC(F)(F)O3)n1 [Compound 16, hydrochloride] ?
(A) 426

(Q) Moving on to [2H]C1([2H])Oc2ccc(Nc3nc(-c4c(C)nc5ccccn45)cs3)cc2O1 [Compound 17, hydrochloride]
(A) 458

Okay, now this molecule:
(Q) Give the measured concentration at 0.35 h of [2H]C([2H])([2H])Oc1ccc(Nc2nc(-c3c(C)nc4ccccn34)cs2)cc1 [Compound 15, hydrochloride] .
(A) 422

====

assay.overview: Plasma pharmacokinetics and brain distribution after single IV, IP and oral administration
Assay type: in vivo
condition: male, C57BL/6, mouse, in vivo, ip, 10 mg/kg, Mean brain conc.
Counter-ions that a name gives are not always drawn.
result.type: concentration at 1 h (ng/g)
State the answer as a number, implicitly in ng/g.

(Q) Fill blank: measured concentration at 1 h of the compound [2H]C([2H])([2H])Oc1ccc(Nc2nc(-c3c(C)nc4ccccn34)cs2)cc1 [Compound 15, hydrochloride] is ____.
(A) 305

(Q) Same for [2H]C1([2H])Oc2ccc(Nc3nc(-c4c(C)nc5ccccn45)cs3)cc2O1 [Compound 17, hydrochloride]
(A) 90.3

In the following, a different compound is considered.
(Q) Query (compound): Cc1nc2ccccn2c1-c1csc(Nc2ccc3c(c2)OC(F)(F)O3)n1 [Compound 16, hydrochloride] ; field requested: concentration at 1 h
(A) 159
